Some binders, each annotated with its measured OD450.
- measurement_target: T1, Aβ42 oligomers (UniProt P05067 672-713)
- T1 construct: domain: Aβ42; Oligomeric state
- T1 sequence (P05067 672-713 limits assumed): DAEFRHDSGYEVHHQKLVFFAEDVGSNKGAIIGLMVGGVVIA
- protocol_text: ELISA on coated Aβ42 oligomers, His-tagged polypeptide at 1 µg per well
measurement_kind: OD450

binder="SFFNNNKR (ZR derivative with one more Asn; not shown: histidine tag) [ZR + N (SEQ ID NO: 5), histidine-tagged]" measurement_kind=OD450 recorded_measurement=0.54
binder="SFFNNKRK (ZR derivative with a Lys added after Arg7; not shown: histidine tag) [ZR + K (SEQ ID NO: 6), histidine-tagged]" measurement_kind=OD450 recorded_measurement=0.56
binder="SAFQNKR (not shown: histidine tag) [ZR4-FN/AQ (SEQ ID NO: 4), histidine-tagged]" measurement_kind=OD450 recorded_measurement=0.47
